molecular target: TDO2 (Homo sapiens, UniProt P48775); construct: decreased levels of NFK in SW48 cells (high TDO expressing cells); assay: TDO2 cell assay (NFK GreenScreen, SW48 cells); format: cell-based; conditions: SW48 cells (high TDO expressing), 200 uM tryptophan, 24 hours; Table 3; read-out: TDO2 Cell Fluor EC50
Sequence (P48775 whole entry): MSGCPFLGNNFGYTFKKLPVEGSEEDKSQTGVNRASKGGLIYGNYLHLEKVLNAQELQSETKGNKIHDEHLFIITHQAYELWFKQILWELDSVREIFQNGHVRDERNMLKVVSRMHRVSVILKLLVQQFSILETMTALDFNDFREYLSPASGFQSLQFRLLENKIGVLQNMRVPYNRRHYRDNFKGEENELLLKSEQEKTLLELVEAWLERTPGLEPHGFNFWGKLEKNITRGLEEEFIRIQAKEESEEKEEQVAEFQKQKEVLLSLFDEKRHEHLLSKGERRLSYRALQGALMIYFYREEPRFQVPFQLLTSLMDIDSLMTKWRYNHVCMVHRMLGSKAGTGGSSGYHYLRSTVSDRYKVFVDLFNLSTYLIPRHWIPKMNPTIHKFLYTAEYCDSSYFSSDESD
pEC50: −log10 of the molar value.
// values below are reported pEC50

Please report the measured pEC50 for CS(=O)(=O)N1CCC(O)C(C2c3ccc(F)cc3-c3cncn32)C1 (single isomer, unassigned) [Example 118a]
< 4.60

Please report the measured pEC50 for CCS(=O)(=O)N1CCC(O)C(C2c3ccccc3-c3cncn32)C1 (single isomer, unassigned) [Example 15b]
< 4.60

Next:
Please report the measured pEC50 for CS(=O)(=O)c1ccc2c(c1)CCC(C1c3ccccc3-c3cncn31)C2O (single isomer, unassigned) [Example 36b]
7.24

Please report the measured pEC50 for Cc1cc2c(cn1)C(O)C(C1c3ccccc3-c3cncn31)C2 (single isomer, unassigned) [Example 59c]
5.80

Please report the measured pEC50 for NC(=O)c1nc2c(s1)CCC(C1c3ccccc3-c3cncn31)C2O (single isomer, unassigned) [Example 149f]
< 4.60

Please report the measured pEC50 for NC(=O)C1CCC(O)(C2c3ccccc3-c3cncn32)CC1 (single isomer, unassigned) [Example 140b]
< 4.60

Please report the measured pEC50 for C[C@@](O)(C1CCOCC1)[C@@H]1c2ccccc2-c2cncn21 (racemic) [Example 131a]
4.72

Please report the measured pEC50 for OC1c2cccnc2CCC1C1c2ccccc2-c2cncn21 (single isomer, unassigned) [Example 31d]
< 4.60

Please report the measured pEC50 for Cc1ccc2c(c1)C(C1COCC1O)n1cncc1-2 (single isomer, unassigned) [Example 110b]
< 4.60

Please report the measured pEC50 for CS(=O)(=O)N1CCC(C2c3ccc(F)cc3-c3cncn32)C(O)C1 (single isomer, unassigned) [Example 119c]
6.66

Please report the measured pEC50 for OC1CCOCC1C1c2cc(F)ccc2-c2cncn21 (single isomer, unassigned) [Example 75b]
5.92

Please report the measured pEC50 for N#CCN1CCC(O)C(C2c3ccccc3-c3cncn32)C1 (single isomer, unassigned) [Example 58b]
< 4.60

Please report the measured pEC50 for OC1C(C2c3ccccc3-c3cncn32)CC12CCOCC2 (single isomer, unassigned) [Example 57h]
< 4.60

Please report the measured pEC50 for O[C@@H]1c2ncccc2CC[C@H]1[C@H]1c2ccccc2-c2cncn21 (single isomer, unassigned) [Example 126a]
< 4.60
